// provenance: ChEMBL document CHEMBL1961873

# inhibition listing for each entry below
target: Rho-associated protein kinase 1 (Homo sapiens) (UniProt Q13464); conditions: at 0.1 µM;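 also: values are mean percent inhibition of ROCK1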
Sequence (Q13464 2-1354 limits assumed): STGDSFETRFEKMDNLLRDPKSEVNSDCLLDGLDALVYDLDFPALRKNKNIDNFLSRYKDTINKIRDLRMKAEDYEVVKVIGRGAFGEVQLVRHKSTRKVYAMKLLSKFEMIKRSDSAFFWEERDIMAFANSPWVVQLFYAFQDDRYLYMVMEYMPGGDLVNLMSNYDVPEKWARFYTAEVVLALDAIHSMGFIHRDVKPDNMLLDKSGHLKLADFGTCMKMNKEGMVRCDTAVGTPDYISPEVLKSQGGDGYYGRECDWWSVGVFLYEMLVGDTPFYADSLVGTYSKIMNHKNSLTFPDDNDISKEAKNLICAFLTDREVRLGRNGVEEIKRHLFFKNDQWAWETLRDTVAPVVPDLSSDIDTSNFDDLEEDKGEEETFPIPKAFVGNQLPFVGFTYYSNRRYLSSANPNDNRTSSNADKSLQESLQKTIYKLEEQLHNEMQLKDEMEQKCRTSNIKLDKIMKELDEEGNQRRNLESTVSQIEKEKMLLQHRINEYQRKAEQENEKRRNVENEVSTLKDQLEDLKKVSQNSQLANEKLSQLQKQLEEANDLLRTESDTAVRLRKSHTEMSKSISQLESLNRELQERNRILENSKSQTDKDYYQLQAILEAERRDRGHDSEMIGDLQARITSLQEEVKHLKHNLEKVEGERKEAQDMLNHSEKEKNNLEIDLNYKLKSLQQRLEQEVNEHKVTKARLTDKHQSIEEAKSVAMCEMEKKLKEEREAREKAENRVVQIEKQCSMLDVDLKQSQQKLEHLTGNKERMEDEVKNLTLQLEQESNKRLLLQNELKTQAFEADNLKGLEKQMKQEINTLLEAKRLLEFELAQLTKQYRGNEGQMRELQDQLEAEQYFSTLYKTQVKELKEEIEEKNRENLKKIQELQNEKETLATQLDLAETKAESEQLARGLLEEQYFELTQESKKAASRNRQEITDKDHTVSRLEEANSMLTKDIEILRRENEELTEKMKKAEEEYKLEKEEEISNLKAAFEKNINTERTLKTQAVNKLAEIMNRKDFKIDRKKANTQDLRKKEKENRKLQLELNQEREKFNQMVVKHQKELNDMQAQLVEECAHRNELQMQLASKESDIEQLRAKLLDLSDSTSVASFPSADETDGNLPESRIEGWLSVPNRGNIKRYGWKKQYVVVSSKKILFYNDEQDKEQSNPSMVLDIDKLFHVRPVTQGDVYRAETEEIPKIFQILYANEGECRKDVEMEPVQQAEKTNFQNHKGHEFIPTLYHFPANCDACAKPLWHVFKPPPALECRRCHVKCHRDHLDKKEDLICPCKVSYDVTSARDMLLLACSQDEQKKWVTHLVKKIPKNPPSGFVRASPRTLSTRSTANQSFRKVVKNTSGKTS
value.kind: inhibition (%)

                           smiles_structure  numeric_result
0  CS(=O)(=O)CCNCc1ccc(-c2ccc3ncnc(Nc4ccc(OCc5cccc(F)c5)c(C(F)(F)F)c4)c3c2)o1            1.46
1  Cc1nnc(-c2ccc(C)c(-c3ccc(C(=O)Nc4cccc(C#N)c4)cc3)c2)o1           -0.21
2   COc1cc(C=NNc2ncnc3c2cnn3-c2ccccc2)ccc1O            0.41

###

molecular target: Receptor-type tyrosine-protein kinase FLT3 (Homo sapiens); details: at 1 µM;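 also: values are mean percent inhibition of FLT3 kinase activity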
inhibition for assorted compounds
value.kind: inhibition

In [3]: df
Out[3]:
                                   compound  result
0      CNC(=O)c1cncc(/C=C/c2c(Cl)cccc2Cl)c1   2.17%
1             COc1ccc(-c2coc3ncnc(N)c23)cc1   4.59%
2  COc1ccc2cc(-c3c(-c4ccncc4)nc(-c4ccc([S+](C)[O-])cc4)n3C)ccc2c1 (stereo not drawn)   1.93%
3  COc1ccc(-c2nn3ncccc3c2-c2ccnc(Nc3ccc(Cl)c(C(F)(F)F)c3)n2)cc1   1.14%
4  COc1cccc(-n2ncc3c(N/N=C/c4cccc(F)c4)ncnc32)c1   6.78%
5      Nc1nc(-c2ccccn2)c(-c2ccc3ncccc3n2)s1   2.99%
6  CS(=O)(=O)CCNCc1nc(-c2ccc3ncnc(Nc4ccc(F)c(Cl)c4)c3c2)cs1   0.63%
7  CS(=O)(=O)CCN(CC#N)Cc1ccc(-c2ccc3ncnc(Nc4ccc(OCc5cccc(F)c5)c(Cl)c4)c3c2)o1   2.32%
